testSystem: Leishmania donovani Topoisomerase 1 (LdTop1) (Leishmania donovani, UniProt A0A3Q8IHS4+Q8WQM6)
Sequence (Q8WQM6 entry or part of it): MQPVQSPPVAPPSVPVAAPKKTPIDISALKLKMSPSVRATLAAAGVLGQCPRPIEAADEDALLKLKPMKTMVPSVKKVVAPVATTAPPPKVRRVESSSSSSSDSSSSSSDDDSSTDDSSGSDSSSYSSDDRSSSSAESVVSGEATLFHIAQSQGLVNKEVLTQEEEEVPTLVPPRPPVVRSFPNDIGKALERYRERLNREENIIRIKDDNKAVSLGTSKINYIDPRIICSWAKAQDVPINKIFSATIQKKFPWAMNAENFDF
Sequence (A0A3Q8IHS4 entry or part of it): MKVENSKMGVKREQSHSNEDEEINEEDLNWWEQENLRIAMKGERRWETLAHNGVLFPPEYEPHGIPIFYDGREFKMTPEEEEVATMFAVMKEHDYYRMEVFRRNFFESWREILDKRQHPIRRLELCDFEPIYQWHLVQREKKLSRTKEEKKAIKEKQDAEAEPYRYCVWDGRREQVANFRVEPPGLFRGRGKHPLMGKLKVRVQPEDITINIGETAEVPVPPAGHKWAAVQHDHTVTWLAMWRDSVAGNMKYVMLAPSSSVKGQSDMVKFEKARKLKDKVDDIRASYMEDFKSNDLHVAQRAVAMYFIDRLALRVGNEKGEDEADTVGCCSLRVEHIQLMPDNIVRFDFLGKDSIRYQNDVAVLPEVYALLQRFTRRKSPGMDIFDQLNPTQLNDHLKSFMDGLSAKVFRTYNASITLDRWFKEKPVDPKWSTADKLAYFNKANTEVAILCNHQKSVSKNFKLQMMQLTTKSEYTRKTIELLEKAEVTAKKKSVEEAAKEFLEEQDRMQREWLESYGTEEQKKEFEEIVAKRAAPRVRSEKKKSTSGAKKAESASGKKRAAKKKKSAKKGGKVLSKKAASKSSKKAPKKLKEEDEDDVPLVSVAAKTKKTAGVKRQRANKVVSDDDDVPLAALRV
assayName: Plasmid DNA relaxation assay, LdTop1 (simultaneous incubation)
Assay type: biochemical
conditionLabel: LdTop1 relaxation, 25 uM; read-out: % inhibition, mean data
rule met means recorded inhibition at 25 µM is 70% or above; rule not met means it is below 70%.

• Cc1cc2c(c(=O)[nH]1)C(=O)O/C2=C\c1cccc(Cl)c1 [Compound 14] = rule not met
• Cc1cc2c(c(=O)[nH]1)C(=O)O/C2=C\c1ccccc1C(F)(F)F [Compound 3] = rule not met
• COc1ccc(/C=C2\OC(=O)c3c2cc(C)[nH]c3=O)c(C)c1C [Compound 2] = rule not met
• Cc1cc2c(c(=O)[nH]1)C(=O)O/C2=C\c1ccc(O)c(O)c1 [Compound 4] = rule met
• Cc1cc2c(c(=O)[nH]1)C(=O)O/C2=C\c1cccc(I)c1 [Compound 15] = rule not met

====

testSystem: Leishmania donovani Topoisomerase 1 (LdTop1) (Leishmania donovani, UniProt A0A3Q8IHS4+Q8WQM6)
assayName: Plasmid DNA relaxation assay, LdTop1 (simultaneous incubation)
Type: biochemical
conditionLabel: read-out: % inhibition (CPT 100%), data 1, LdTop1 relaxation, 12.5 uM
The following compounds are shown together with reported inhibition at 12.5 µM values.
measurementName: inhibition at 12.5 µM (%)

- COc1ccc(/C=C2\OC(=O)c3c2cc(C)[nH]c3=O)c(C)c1C [Compound 2]: 50.1
- Cc1cc2c(c(=O)[nH]1)C(=O)O/C2=C\c1cccc(I)c1 [Compound 15]: 41.1
- Cc1cc2c(c(=O)[nH]1)C(=O)O/C2=C\c1ccccc1C(F)(F)F [Compound 3]: 51.2
- Cc1cc2c(c(=O)[nH]1)C(=O)O/C2=C\c1cccc(Cl)c1 [Compound 14]: 32
- Cc1cc2c(c(=O)[nH]1)C(=O)O/C2=C\c1cccc(Br)c1 [Compound 9]: 52.9
- Cc1cc2c(c(=O)[nH]1)C(=O)O/C2=C\c1ccc(O)c(O)c1 [Compound 4]: 97.3

====

testSystem: Leishmania donovani Topoisomerase 1 (LdTop1) (Leishmania donovani, UniProt A0A3Q8IHS4+Q8WQM6)
assayName: Plasmid DNA relaxation assay, LdTop1 (simultaneous incubation)
Type: biochemical
conditionLabel: read-out: % inhibition (CPT 100%), data 2, LdTop1 relaxation, 12.5 uM
satisfied means recorded inhibition at 12.5 µM is 50% or above; not satisfied means it is below 50%.

- Cc1cc2c(c(=O)[nH]1)C(=O)O/C2=C\c1cccc(Cl)c1 [Compound 14]: not satisfied
- Cc1cc2c(c(=O)[nH]1)C(=O)O/C2=C\c1ccccc1C(F)(F)F [Compound 3]: satisfied
- Cc1cc2c(c(=O)[nH]1)C(=O)O/C2=C\c1ccc(O)c(O)c1 [Compound 4]: satisfied
- Cc1cc2c(c(=O)[nH]1)C(=O)O/C2=C\c1cccc(I)c1 [Compound 15]: not satisfied

====

testSystem: Leishmania donovani Topoisomerase 1 (LdTop1) (Leishmania donovani, UniProt A0A3Q8IHS4+Q8WQM6)
assayName: Plasmid DNA relaxation assay, LdTop1 (simultaneous incubation)
Assay type: biochemical
conditionLabel: plasmid DNA relaxation
measurementName: LdTop1 inhibitory activity

- Cc1cc2c(c(=O)[nH]1)C(=O)O/C2=C\c1cccc(I)c1 [Compound 15]: considerable activity
- Cc1cc2c(c(=O)[nH]1)C(=O)O/C2=C\c1cccc(Cl)c1 [Compound 14]: considerable activity

Origin of values: paper PMC4879574
